- Method Description: Measurement of enzyme substrate degradation (100° C. for 15 minutes) by fluorescence
- Type: physicochemical
- Protocol Conditions: pH 7 LB broth, no spores, read at 60° C., +5 min
Measured Parameter: MEASURED FLUORESCENCE, RFU +5 min

Would you kindly share the measured MEASURED FLUORESCENCE, RFU +5 min for `Cc1cc(=O)oc2cc(O[C@H]3O[C@H](CO)[C@@H](O)[C@H](O)[C@H]3O)cc(F)c12` ?
777 RFU

And the next one, `Cc1cc(=O)oc2cc(O[C@H]3O[C@H](CO)[C@@H](O)[C@H](O)[C@H]3O)c(F)cc12` ?
1183 RFU

Please give the result for `Cc1cc(=O)oc2cc(O[C@H]3O[C@H](CO)[C@@H](O)[C@H](O)[C@H]3O)ccc12` too.
790 RFU

And the next one, `Cc1cc(=O)oc2c(F)c(O[C@H]3O[C@H](CO)[C@@H](O)[C@H](O)[C@H]3O)c(F)cc12` ?
13409 RFU

---

- Method Description: Fluorescence of control wells containing enzyme substrate in LB broth without spores
- Type: physicochemical
- Protocol Conditions: pH 8 LB broth, substrate 0.3 mg/mL, 60° C., +30 minutes
Could you please report measured mean fluorescence values detected for the control wells for the items listed next?
Express it in RFU; write the number only.

Please report the recorded mean fluorescence values detected for the control wells for `Cc1cc(=O)oc2cc(O[C@H]3O[C@H](CO)[C@@H](O)[C@H](O)[C@H]3O)c(F)cc12` .
723

Here is the next compound: `Cc1cc(=O)oc2cc(O[C@H]3O[C@H](CO)[C@@H](O)[C@H](O)[C@H]3O)cc(F)c12`
455

Consider next the compound `Cc1cc(=O)oc2cc(O[C@H]3O[C@H](CO)[C@@H](O)[C@H](O)[C@H]3O)ccc12` in the same way.
463

---

Hi there, I'd appreciate the recorded mean fluorescence values detected for the control wells for every entry that follows.
- Method Description: Fluorescence of control wells containing enzyme substrate in LB broth without spores
- Format: physicochemical
- Protocol Conditions: pH 7 LB broth, substrate 0.3 mg/mL, 60° C., +30 minutes
- Description: Luria-Bertani (LB) broth was prepared by dissolving tryptone (10 g/L), yeast extract (5 g/L), and NaCl (5 g/L) in deionized water. […] LB broth (pH 7) containing 6′-fluoro-4′-methylumbelliferyl α-D-glucopyranoside (0.3 mg/mL) (enzyme substrate of Example 1) was added to two wells (100 microliters per well) of a black 96-well microtiter plate with optically clear, flat bottom wells (NUNC #165301, Thermo Fisher Scientific). […] A Synergy Neo2 fluorescence plate reader (BioTek Company) was used. […]
Record the value in RFU, omitting the unit from your answer.

Would you mind telling me what mean fluorescence values detected for the control wells value was observed for `Cc1cc(=O)oc2cc(O[C@H]3O[C@H](CO)[C@@H](O)[C@H](O)[C@H]3O)c(F)cc12` ?
763

Request: `Cc1cc(=O)oc2cc(O[C@H]3O[C@H](CO)[C@@H](O)[C@H](O)[C@H]3O)cc(F)c12`
547

How about this molecule: `Cc1cc(=O)oc2cc(O[C@H]3O[C@H](CO)[C@@H](O)[C@H](O)[C@H]3O)ccc12`
557

---

- Method Description: Fluorescence of control wells containing enzyme substrate in LB broth without spores
- Format: physicochemical
- Protocol Conditions: pH 6 LB broth, substrate 0.3 mg/mL, 60° C., +30 minutes
Measured Parameter: mean fluorescence values detected for the control wells

// lookup mean fluorescence values detected for the control wells for Cc1cc(=O)oc2cc(O[C@H]3O[C@H](CO)[C@@H](O)[C@H](O)[C@H]3O)c(F)cc12 [Example 1]
746 RFU

Proceed to Cc1cc(=O)oc2cc(O[C@H]3O[C@H](CO)[C@@H](O)[C@H](O)[C@H]3O)ccc12 [MUG]
656 RFU

Further, for Cc1cc(=O)oc2cc(O[C@H]3O[C@H](CO)[C@@H](O)[C@H](O)[C@H]3O)cc(F)c12 [Example 2] ?
622 RFU

// repeat for Cc1cc(=O)oc2c(F)c(O[C@H]3O[C@H](CO)[C@@H](O)[C@H](O)[C@H]3O)c(F)cc12 [Comparative Example A] and report
1,805 RFU

---

- Method Description: Measurement of enzyme substrate degradation (100° C. for 15 minutes) by fluorescence
- Type: physicochemical
- Protocol Conditions: pH 8 LB broth, no spores, read at 60° C., +10 min
- Method: Luria-Bertani (LB) broth was prepared by dissolving tryptone (10 g/L), yeast extract (5 g/L), and NaCl (5 g/L) in deionized water. […] An 800-microliter sample of LB broth (pH 6) containing 6′-fluoro-4′-methylumbelliferyl α-D-glucopyranoside (0.3 mg/mL) (enzyme substrate of Example 1) was added to a 1.5 mL microcentrifuge tube and the capped tube was placed in a heating block at 100° C. for 15 minutes. […] A Synergy Neo2 fluorescence plate reader (BioTek Company) was used. […]
Measured Parameter: MEASURED FLUORESCENCE, RFU +10 min (RFU)
Entry rule: numbers only, all in RFU.

Dear colleague, I am looking for the recorded MEASURED FLUORESCENCE, RFU +10 min of the following compound: `Cc1cc(=O)oc2cc(O[C@H]3O[C@H](CO)[C@@H](O)[C@H](O)[C@H]3O)cc(F)c12`
658

What about this compound? `Cc1cc(=O)oc2c(F)c(O[C@H]3O[C@H](CO)[C@@H](O)[C@H](O)[C@H]3O)c(F)cc12`
14494

Continue with `Cc1cc(=O)oc2cc(O[C@H]3O[C@H](CO)[C@@H](O)[C@H](O)[C@H]3O)c(F)cc12`
1092

# repeat for `Cc1cc(=O)oc2cc(O[C@H]3O[C@H](CO)[C@@H](O)[C@H](O)[C@H]3O)ccc12`
643

---

- Method Description: Measurement of enzyme substrate degradation (100° C. for 15 minutes) by fluorescence
- Assay type: physicochemical
- Protocol Conditions: pH 8 LB broth, no spores, read at 60° C., 10 sec
Please respond with reported MEASURED FLUORESCENCE, RFU 10 sec for every item in the list.
# unit: RFU | format: bare number

I'd like to know its MEASURED FLUORESCENCE, RFU 10 sec. The compound in question is `Cc1cc(=O)oc2c(F)c(O[C@H]3O[C@H](CO)[C@@H](O)[C@H](O)[C@H]3O)c(F)cc12`
14015

Entry `Cc1cc(=O)oc2cc(O[C@H]3O[C@H](CO)[C@@H](O)[C@H](O)[C@H]3O)cc(F)c12` please
748

Same question for `Cc1cc(=O)oc2cc(O[C@H]3O[C@H](CO)[C@@H](O)[C@H](O)[C@H]3O)ccc12` please.
714

Also `Cc1cc(=O)oc2cc(O[C@H]3O[C@H](CO)[C@@H](O)[C@H](O)[C@H]3O)c(F)cc12` , if possible.
1145

---

- Tested on: Geobacillus stearothermophilus spores (ATCC 7953)
- Method Description: Fluorescence measurements using enzyme substrates and Geobacillus stearothermophilus spores in LB broth
- Format: cell-based
- Protocol Conditions: pH 9 LB broth, substrate 0.3 mg/mL, 5×10^6 spores, 60° C., +30 min
Measured Parameter: MEASURED FLUORESCENCE, RFU +30 min (RFU)
// units = RFU; emit number, no label

Sample `Cc1cc(=O)oc2c(F)c(O[C@H]3O[C@H](CO)[C@@H](O)[C@H](O)[C@H]3O)c(F)cc12` — what was its MEASURED FLUORESCENCE, RFU +30 min?
77404

Again, but for `Cc1cc(=O)oc2cc(O[C@H]3O[C@H](CO)[C@@H](O)[C@H](O)[C@H]3O)c(F)cc12`
77125

And for `Cc1cc(=O)oc2cc(O[C@H]3O[C@H](CO)[C@@H](O)[C@H](O)[C@H]3O)ccc12` ?
48874

`Cc1cc(=O)oc2cc(O[C@H]3O[C@H](CO)[C@@H](O)[C@H](O)[C@H]3O)cc(F)c12` ?
43732

---

Provide the recorded mean fluorescence values detected for the control wells for the entries that follow.
- Method Description: Fluorescence of control wells containing enzyme substrate in LB broth without spores
- Format: physicochemical
- Protocol Conditions: pH 9 LB broth, substrate 0.3 mg/mL, 60° C., +5 minutes
Quick note: give the figure in RFU, leave out the unit.

Item `Cc1cc(=O)oc2cc(O[C@H]3O[C@H](CO)[C@@H](O)[C@H](O)[C@H]3O)cc(F)c12` has what recorded mean fluorescence values detected for the control wells?
449

What would you report for `Cc1cc(=O)oc2cc(O[C@H]3O[C@H](CO)[C@@H](O)[C@H](O)[C@H]3O)ccc12` ?
436

Proceed to `Cc1cc(=O)oc2cc(O[C@H]3O[C@H](CO)[C@@H](O)[C@H](O)[C@H]3O)c(F)cc12`
772
